test.target: human CD33 T211A (human, UniProt P20138 18-364)
Sequence (P20138 18-364 T211A limits assumed): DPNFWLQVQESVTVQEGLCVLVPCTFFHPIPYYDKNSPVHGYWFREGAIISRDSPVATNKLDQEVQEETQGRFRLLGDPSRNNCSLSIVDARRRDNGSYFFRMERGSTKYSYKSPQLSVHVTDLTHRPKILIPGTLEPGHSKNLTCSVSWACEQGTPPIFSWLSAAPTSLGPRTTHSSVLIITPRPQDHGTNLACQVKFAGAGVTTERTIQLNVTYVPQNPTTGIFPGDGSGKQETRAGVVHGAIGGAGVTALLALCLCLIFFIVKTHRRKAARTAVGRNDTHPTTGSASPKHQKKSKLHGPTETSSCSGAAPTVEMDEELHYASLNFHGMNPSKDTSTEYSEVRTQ
assay.info: alanine scan, flow cytometry, HEK293-T;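 note: antibody binding to each alanine-substituted CD33 mutant expressed transiently in HEK293-T, read as fluorescence minus background, mean of duplicates, relative to wild-type CD33 set as 100%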
Consider the following binders; for each one, report its Mean % WT Binding.
One number for each entry, in %.

Below are worked cases with known answers.
binder | val
Refmab #1 (antibody, V domains shown, In the alanine scan antibodies were used as IgG or Fab; also called hP67.6) VH: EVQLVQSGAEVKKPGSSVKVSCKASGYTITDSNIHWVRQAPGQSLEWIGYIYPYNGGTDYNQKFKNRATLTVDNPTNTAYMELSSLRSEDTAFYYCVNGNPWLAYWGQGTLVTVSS VL: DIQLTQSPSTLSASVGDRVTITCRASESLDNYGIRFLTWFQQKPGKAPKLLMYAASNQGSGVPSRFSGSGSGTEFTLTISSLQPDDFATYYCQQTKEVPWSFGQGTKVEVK | 82.4
Refmab #3 (antibody, V domains shown, In the alanine scan antibodies were used as IgG or Fab) VH: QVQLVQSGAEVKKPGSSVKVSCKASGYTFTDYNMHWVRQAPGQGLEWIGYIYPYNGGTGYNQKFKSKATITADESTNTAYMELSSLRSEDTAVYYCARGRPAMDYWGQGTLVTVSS VL: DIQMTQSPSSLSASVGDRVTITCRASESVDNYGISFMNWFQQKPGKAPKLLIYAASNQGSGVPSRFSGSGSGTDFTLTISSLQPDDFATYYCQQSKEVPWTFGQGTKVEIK | 96.2

Below are some binders; for each one, tell me its Mean % WT Binding.
1. Refmab #4 (antibody, V domains shown, In the alanine scan antibodies were used as IgG or Fab) VH: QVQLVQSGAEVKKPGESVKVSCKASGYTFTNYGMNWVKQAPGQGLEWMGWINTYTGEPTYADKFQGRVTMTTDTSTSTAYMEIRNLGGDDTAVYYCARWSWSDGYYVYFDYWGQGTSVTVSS VL: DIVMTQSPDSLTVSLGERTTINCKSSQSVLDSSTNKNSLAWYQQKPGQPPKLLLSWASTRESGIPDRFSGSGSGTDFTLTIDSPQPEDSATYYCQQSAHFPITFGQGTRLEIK
2. Refmab #2 (antibody, V domains shown, In the alanine scan antibodies were used as IgG or Fab) VH: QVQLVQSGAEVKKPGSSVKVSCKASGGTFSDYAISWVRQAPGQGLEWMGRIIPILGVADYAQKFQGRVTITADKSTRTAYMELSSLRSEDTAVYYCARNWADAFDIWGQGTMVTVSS VL: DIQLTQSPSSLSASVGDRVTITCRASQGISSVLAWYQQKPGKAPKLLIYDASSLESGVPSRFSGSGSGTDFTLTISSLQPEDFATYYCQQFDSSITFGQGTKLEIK

Result:
1. 79.4
2. 111
